EXPERIMENT: protease stability score; higher = more stable; yeast display proteolysis, trypsin and chymotrypsin;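 also: relative to predicted unfolded state with 0 unfolded-like and 1 meaning tenfold more protease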
Answer No if protease stability score is under 2, and Yes if it is 2 or more.

### Prompt hey, is protease stability score for this one >= 2? DEEKDHAQMFLELWRHFLETGDEEFLERLADPHVKSLINGVEHHGREIMYKYLIKFLRRLGVDRVHTEVRIHHMHVINGVAFFDGTLHLNFNGQTYSRRVEIIVYKVNGRWHLHEFRIE
### Response No

### Prompt hey, is protease stability score for this one >= 2? DLDQELREKTIRIELKAWRTGDEDKIKELLDPNTRFIINGRHLIGREAIHILLEQIDHFKDLQPRHVDVINGVVRFDGHMEGTFNGVDQSTKVHIIAWKYNGRWFIESIIII
### Response No

### Prompt hey, is protease stability score for this one >= 2? SEEEEYLRRVAELILRLLITGDEDEHHNLADPNTLVLIDINGVHIRDHGWWALRRWWEELERRVPGMRVRPRNMTVQGEKVILHMETVIGDKRLRLDFYHLVIDGKITSVEIKVDES
### Response Yes

### Prompt hey, is protease stability score for this one >= 2? DSHYHLFIYNMELLSTLLKTGDEHRNTEMFDPHVRIVVGEKEIHGREDVEKYLREIRIEEMRFHLRRLDVQGEKVTVEGELRIRFWIGDKEHEHNEDARIHLLKINGRWRLKEIESK
### Response Yes

### Prompt hey, is protease stability score for this one >= 2? SEEHHHYSELMHQLTEWMLTGNFEEWARYADPNTRARIDIDGRRLEVHGREEMMRVLKEHRKLMGVDHIEVRDRHVFNGRNELIFILHQGDKERHSHITIVVINGQIKEVDIILR
### Response No

### Prompt hey, is protease stability score for this one >= 2? HEERDLAMHVIKRFIDSTVTGNEQDLTKLLDPHVRIEQGEYHDHGWKYAQLMIERFRNVRIELRIHFIRVQGDKVQVDIDWEVHIGDKVISSRLEMYIIKVNGVWLIRYVIFE
### Response No

### Prompt hey, is protease stability score for this one >= 2? DEDEELDRKFTTLFLHLWETGDEDTMRDLLDPDVRLLIIYNGRHIEVHGREHMSKFLKDFWRKFKNLRIHVKHVEAIDGVVHISGETRFDGRSTLVQIDIDVVDGRIKSERYIFR
### Response No

### Prompt hey, is protease stability score for this one >= 2? SEDENLIEEFLRRLMKWHNTGNFDEILNMVDPNTRIIVGDKFHHGRDALRYMWEFLGVDHVRIHVKRQEIIGDKVHNDTELEVNVNGKNLRIKEKLVVIKVNGVWILERIEIQ
### Response No

### Prompt hey, is protease stability score for this one >= 2? DEIKESAEEAQRTWVHNSLTGNEEELSRNADPDVRVIIYVNGREIRLIGREFLEELMHRVKNLTIEVDEIRFQGDKIRFNERWTVNGVPRHVDLVMHKFNGKWHIHSINIHVV
### Response No

### Prompt hey, is protease stability score for this one >= 2? SDLEEVIRKHIEELEESRRTGDEESLWRLLDPNTLKVVGDKRIHGMEAVAEIETFHDRRVKNATDRLNLREVHTQGDKLTIRGELILDWDGVKINVHVRLEILKFDGRWIIHRIEVK
### Response No

### Prompt hey, is protease stability score for this one >= 2? SEDIEIVKQVLEFHIRSEITGDEDTMTELLDPHTRITIGDKHIHGREEAVRILLEIANHMRIHRFHVHQVHIYDGRLEIDMRIDREYDGKRRHQEVWWIFIKVNGRWYIHSIEIR
### Response No

### Prompt hey, is protease stability score for this one >= 2? EEEEENAKQFFHIWERSMRTGDEKTLHELADPHVRAVIGDKHHIGREEFHEVIRQTMEHIRVDDMILHTIMVYDGKVEILGRLVVRVGDKTHEVHVKIQVEKINGRWLLTELHIK
### Response No

### Prompt hey, is protease stability score for this one >= 2? DDIREDLLRIIKLFIDYLITGDWKWIEKLADPHVRVEIDVNGKEIERHGMDQLREHLKHLWDRYDHLEFRIDDFKAIGEYSTLNGTLIVVVDGQKKSVEVRVVIVIINGKIDEVRHEQN
### Response No

### Prompt hey, is protease stability score for this one >= 2? SEDEEMLRRIIEELNRAHKTGNWRRIAELMDPDVRLIIGDKENHGRSVLIEWLKRIDHIEVESVDIHHIDSQGDKIILHGQVHLINVYNGVEVQENRDMTVILIKVDGRWFFHSIRVR
### Response Yes

### Prompt hey, is protease stability score for this one >= 2? DEDKEMIRHAVEILLKTLYTGDWETLERLLDPNARINVDGVDIHGRDVVKHWLDRADHVSIHDSHVERFRFVNGRLTIHIKEHSRFEIGDKTMRVELKRNLFILKIDGRWILESERIV
### Response No

### Prompt hey, is protease stability score for this one >= 2? DEDEEVIRRMLETELNAVKTGDWRKFYELADPSVLVDIDGKKIHGRELWSRHLMHLRIDEIHIRIDHMDVVNGVAELHIKMEFRGTIDGVHRKQSTEVILFIKKIDGQWVIQKIEVR
### Response No

### Prompt hey, is protease stability score for this one >= 2? SRESEEAKDDWEKIINDLRTGDFRSLRELFDPNVRLETENHEFHGWETAEHMVKRFDHIHVRREHFDHIEIQGEKVILDGTMRMEFIINGVVYEKEQRVIIIFLKYNGRWLIKEVEFI
### Response No

### Prompt hey, is protease stability score for this one >= 2? DEEKKEIQKAVDLMRHLLVTGDENTLHHLLDPNVRLIVGDKFFHGREELIRVWSEEIESMGFDHVEMHVRHVRVIGDKADVQMEIRFDVNGREHSREFRVRLRKIDGQWVIKSIEIR
### Response Yes

### Prompt hey, is protease stability score for this one >= 2? DEDEEMVEKALELMAETHETGDEDTLHDFFDPHTRMELQIGDKTIRDHGRHAMHWLLRILGINHIEIHHRTVRLINGRIHLHINGSINVNGQEIESRIHIYSEKIDGRWRVTRLEYRFH
### Response No
